studyTarget: T1, Claudin 18.2 (CLDN18.2), expressed on CHOS-CLDN 18.2 / HEK293-CLDN 18.2 / HCC827-CLDN 18.2 cells (human, UniProt P56856-2 1-261)
T1 construct: whole, on cells; The species is not repeated for the CHOS-CLDN 18.2 cells; also called claudin-18A2
experimentalProtocol: FACS, MFI on CHOS-CLDN18.2 over MFI on CHOS-CLDN18.1, 10 µg/ml
# Lookup of reported CLDN18.2/CLDN18.1 (MFI ratio) keyed by entry
testReadout: CLDN18.2/CLDN18.1 (MFI ratio)

[[record]]
binder = "QP14641461 (antibody, human IgG1, kappa, V domains shown, Humanized from QP207208) VH: EVQLVQSGAEVKKPGASVKVSCKASGYTFTSYIMHWVRQAPGQGLEWIGYINPYNDGTKYNEKFKGRVTLTRDKSTSTVYMELSSLRSEDTAVYYCARLGFTTRNAMDYWGQGTLVTVSS VL: DIVMTQSPDSLAVSLGERATINCKSSQSLLNSGNQKNYLAWYQQKPGQPPKLLIYGASTRESGVPDRFTGSGSGTDFTLTISSLQAEDVAVYYCQNDHSYPFTFGQGTKLEIKR"
observedresult = 709

[[record]]
binder = "QP024025 (antibody, human IgG1, V domains shown, also called IMAB362; 175D10(IMAB362)) VH: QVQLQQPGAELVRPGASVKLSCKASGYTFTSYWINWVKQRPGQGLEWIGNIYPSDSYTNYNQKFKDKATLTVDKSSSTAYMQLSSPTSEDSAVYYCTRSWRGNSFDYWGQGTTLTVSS VL: DIVMTQSPSSLTVTAGEKVTMSCKSSQSLLNSGNQKNYLTWYQQKPGQPPKLLIYWASTRESGVPDRFTGSGSGTDFTLTISSVQAEDLAVYYCQNDYSYPFTFGSGTKLEIK"
observedresult = 104

[[record]]
binder = "QP14441441 (antibody, human IgG1, kappa, V domains shown, Humanized from QP192193) VH: QVQLVQSGAEVKKPGASVKVSCKASGYAFSSYWMNWVRQAPGQGLEWIGQIYPGNGDTTYNGKFKGRVTMTADKSTSTVYMELSSLRSEDTAVYYCARFVKGNAMDYWGQGTLVTVSS VL: DIVMTQSPDSLAVSLGERATISCKSSQSLLNSGNQKNYLTWYQQKPGQPPKLLIYWASTRESGVPDRFSGSGSGIDFTLTISSVQAEDVAVYYCQNAYSYPFTFGQGTKLEIKR"
observedresult = 608

